Tested on: Botrytis cinerea (B05.10)
Test: Resazurin antifungal assay of 180 alpha-factor peptide variants towards Botrytis (Example 2)
Assay type: cell-based
Settings: % inhibition of fungal growth, Botrytis conidia, peptide 15 μM, resazurin
Peptide text beside a SMILES is read from it.
Measured Inhibition at 15 μM, listed per entry for reference.
Just the number please, in %, no unit attached.

compound	observedValue
CSCC[C@H](NC(=O)[C@@H]1CCCN1C(=O)[C@H](CCC(N)=O)NC(=O)CNC(=O)[C@@H]1CCCN1C(=O)[C@H](CCCCN)NC(=O)[C@H](Cc1ccccc1)NC(=O)[C@H](CCCNC(=N)N)NC(=O)[C@H](CC(C)C)NC(=O)[C@H](Cc1ccccc1)NC(=O)[C@H](Cc1c[nH]cn1)NC(=O)[C@@H](N)CCCCN)C(=O)N[C@@H](Cc1ccc(O)cc1)C(=O)O [compound 18] (H-KHFLRFKPGQPMY-OH; N-terminus and C-terminus assumed)	94.03

Data request: Item under review: CC[C@H](C)[C@H](NC(=O)[C@H](CCCCN)NC(=O)[C@@H](NC(=O)[C@H](CCCCN)NC(=O)[C@H](CC(C)C)NC(=O)[C@H](Cc1c[nH]c2ccccc12)NC(=O)[C@H](Cc1c[nH]cn1)NC(=O)[C@@H](N)CCCCN)[C@@H](C)CC)C(=O)NCC(=O)N[C@@H](CCC(=O)O)C(=O)N1CCC[C@H]1C(=O)N[C@@H](CCSC)C(=O)N[C@@H](Cc1ccc(O)cc1)C(=O)O [compound 62] (H-KHWLKIKIGEPMY-OH; N-terminus and C-terminus assumed) . Reported Inhibition at 15 μM?
Data returned: 98.89

###

Each entry below carries its recorded Inhibition at 15 μM.
System: Botrytis cinerea (B05.10)
Assay: Resazurin antifungal assay of 180 alpha-factor peptide variants towards Botrytis (Example 2)
Assay type: cell-based
Conditions: % inhibition of fungal growth, Botrytis conidia, peptide 15 μM, resazurin
Peptide text beside a SMILES is read from it.
Express the result in % but write the number alone.

compound	Inhibition at 15 μM / %
CSCC[C@H](NC(=O)[C@@H]1CCCN1C(=O)[C@H](CCC(N)=O)NC(=O)CNC(=O)[C@@H]1CCCN1C(=O)[C@H](CCCCN)NC(=O)[C@H](Cc1ccccc1)NC(=O)[C@H](CCCNC(=N)N)NC(=O)[C@H](CC(C)C)NC(=O)[C@@H](NC(=O)[C@H](Cc1c[nH]cn1)NC(=O)[C@@H](N)CCCCN)C(C)C)C(=O)N[C@@H](Cc1ccc(O)cc1)C(=O)O [compound 12] (H-KHVLRFKPGQPMY-OH; N-terminus and C-terminus assumed)	98.79

Data request: So what's the measured Inhibition at 15 μM for this one? CSCC[C@H](NC(=O)[C@@H]1CCCN1C(=O)[C@H](CCC(N)=O)NC(=O)CNC(=O)[C@@H]1CCCN1C(=O)[C@H](CCCCN)NC(=O)[C@H](Cc1ccccc1)NC(=O)[C@H](CCCNC(=N)N)NC(=O)[C@H](CC(C)C)NC(=O)[C@H](Cc1c[nH]c2ccccc12)NC(=O)[C@H](Cc1c[nH]cn1)NC(=O)[C@@H](N)CCCCN)C(=O)N[C@@H](Cc1ccc(O)cc1)C(=O)O [compound 9] (H-KHWLRFKPGQPMY-OH; N-terminus and C-terminus assumed)
Data returned: 100

Data request: Next compound: CSCC[C@H](NC(=O)[C@@H]1CCCN1C(=O)[C@H](CCC(N)=O)NC(=O)CNC(=O)[C@@H]1CCCN1C(=O)[C@H](CCCCN)NC(=O)[C@H](Cc1ccccc1)NC(=O)[C@H](CCCCN)NC(=O)[C@H](CC(C)C)NC(=O)[C@H](Cc1ccc(O)cc1)NC(=O)[C@H](Cc1c[nH]cn1)NC(=O)[C@@H](N)CCCCN)C(=O)N[C@@H](Cc1ccc(O)cc1)C(=O)O [compound 72] (H-KHYLKFKPGQPMY-OH; N-terminus and C-terminus assumed)
Data returned: 98.60

Entry source: patent US20250382332A1
